Assignment: determine reported self-cleavage for the given variants.
B1: HDV Ribozyme (parent)
chain: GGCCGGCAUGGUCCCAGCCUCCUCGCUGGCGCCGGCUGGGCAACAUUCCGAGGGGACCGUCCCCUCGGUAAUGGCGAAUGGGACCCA

- Variants of: B1
- protocol details: self-cleavage, relative activity (ratio to wild type); higher = more cleavage; co-transcriptional
Give bare numbers.

GGCCGGCAUGGUCCCAGCCUCCUCGCUGGCGCCGGCUGUGCAACAUUCCGAGGGGACCGUCCCCUCGGUAAUGGCGAAUAGGACCCA [G39U G80A] :: 0.151
GGCCGGCAUGGUCCCAGCCUCCUCGCUGGCGCCGGCUGGGCAACAUGCCGAGGGGACCGUCCCCUCGGUAAUGGCGAAUGGGUCCCA [U47G A83U] :: 0.525
GGCCGGCAUGGUCCCAGCCUCCUCGCUGGCGCCGGCUGGGCAACAUUCCUAGGGGACCGUCCCCUCGGUAAGGGCGAAUGGGACCCA [G50U U72G] :: 0.415
GGCCGGCAUGGUCCCAGCCUCCUCGCUGGUGCCGGCUGGGCAACAUUCCGAGGGGACCGUCCCAUCGGUAAUGGCGAAUGGGACCCA [C30U C64A] :: 0.422

Indicate the recorded self-cleavage value for this variant: GGCCGGCAUGGUCCCAGCCUCCUCGCUGGCGCUGGCUGGGCAACAUUCCGAGGGGGCCGUCCCCUCGGUAAUGGCGAAUGGGACCCA [C33U A56G] 0.665
